Ref: ChEMBL document CHEMBL1142744

// values below are reported pKi
- Measurement target: Neuronal acetylcholine receptor; alpha3/beta4 (Rattus norvegicus, UniProt P04757+P12392)
- Sequence (P04757 whole entry): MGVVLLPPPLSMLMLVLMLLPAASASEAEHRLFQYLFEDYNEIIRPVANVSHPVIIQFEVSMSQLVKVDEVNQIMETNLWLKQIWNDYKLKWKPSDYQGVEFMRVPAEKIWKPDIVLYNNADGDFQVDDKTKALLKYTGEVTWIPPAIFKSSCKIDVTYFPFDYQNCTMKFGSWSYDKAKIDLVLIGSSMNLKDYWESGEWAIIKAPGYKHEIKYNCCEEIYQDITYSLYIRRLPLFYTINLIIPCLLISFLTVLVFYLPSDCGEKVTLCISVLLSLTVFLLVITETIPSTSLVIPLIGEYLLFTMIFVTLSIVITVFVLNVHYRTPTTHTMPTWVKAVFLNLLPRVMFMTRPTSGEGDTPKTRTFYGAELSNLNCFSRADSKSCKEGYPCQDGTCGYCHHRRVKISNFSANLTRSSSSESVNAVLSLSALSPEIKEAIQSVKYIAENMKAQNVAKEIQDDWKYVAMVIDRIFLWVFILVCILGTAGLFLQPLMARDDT
- Sequence (P12392 whole entry): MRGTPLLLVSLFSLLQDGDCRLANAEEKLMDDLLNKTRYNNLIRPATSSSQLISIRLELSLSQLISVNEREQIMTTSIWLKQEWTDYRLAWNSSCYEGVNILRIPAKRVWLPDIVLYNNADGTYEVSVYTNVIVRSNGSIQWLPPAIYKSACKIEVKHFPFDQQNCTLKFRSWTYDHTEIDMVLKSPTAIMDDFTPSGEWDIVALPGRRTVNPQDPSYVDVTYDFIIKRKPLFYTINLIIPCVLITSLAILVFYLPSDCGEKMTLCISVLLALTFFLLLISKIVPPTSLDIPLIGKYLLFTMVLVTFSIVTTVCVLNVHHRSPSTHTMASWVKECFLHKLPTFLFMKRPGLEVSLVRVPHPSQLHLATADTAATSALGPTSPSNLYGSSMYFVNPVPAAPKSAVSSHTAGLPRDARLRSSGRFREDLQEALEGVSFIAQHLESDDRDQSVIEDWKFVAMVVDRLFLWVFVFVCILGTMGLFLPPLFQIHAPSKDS
- Experimental protocol: In vitro binding affinity towards rat Nicotinic acetylcholine receptor alpha3-beta4 using 0.5 nM [3H]epibatidine
pKi: −log10 of the molar value.
Measurement type: pKi

- Compound: "Cc1ccc(-c2cc(C3CC4CCC3N4)cnc2F)cc1 (configuration not stated)"
  Observed result: 7.54
- Compound: "Fc1ncc(C2CC3CCC2N3)cc1-c1ccc(Cl)cc1 (configuration not stated)"
  Observed result: 6.59
- Compound: "Cc1cc(-c2cc(C3CC4CCC3N4)cnc2F)ccc1F (configuration not stated)"
  Observed result: 5.53
- Compound: "Fc1ncc(C2CC3CCC2N3)cc1-c1ccc(Cl)c(Cl)c1 (configuration not stated)"
  Observed result: 6.48
- Compound: "Cc1ccc(-c2cc(C3CC4CCC3N4)cnc2Cl)cc1 (configuration not stated)"
  Observed result: 6.37
- Compound: "Fc1ccc(-c2cc(C3CC4CCC3N4)cnc2F)cc1 (configuration not stated)"
  Observed result: 6.39
- Compound: "Fc1ncc(C2CC3CCC2N3)cc1-c1ccccc1 (configuration not stated)"
  Observed result: 6.02
- Compound: "CN1C2CCC1C(c1cnc(Cl)c(-c3ccccc3)c1)C2 (configuration not stated)"
  Observed result: 7.81
- Compound: "N#Cc1ccc(-c2cc(C3CC4CCC3N4)cnc2F)cc1 (configuration not stated)"
  Observed result: 6.54
- Compound: "Cc1cccc(-c2cc(C3CC4CCC3N4)cnc2F)c1 (configuration not stated)"
  Observed result: 5.62
- Compound: "COc1ccc(-c2cc(C3CC4CCC3N4)cnc2Cl)cc1 (configuration not stated)"
  Observed result: 7.26
- Compound: "Clc1ncc(C2CC3CCC2N3)cc1-c1ccccc1 (configuration not stated)"
  Observed result: 7.62
